// provenance: ChEMBL document CHEMBL5665443

# study_target: Endonuclease 8-like 1 (Homo sapiens) (UniProt Q96FI4);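 further: fluorescence at 594 nm from quenched duplex DNA oligonucleotides released by NEIL1 cleavage and strand separation, reported as reduction of this enzyme activity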
# Sequence (Q96FI4 whole entry): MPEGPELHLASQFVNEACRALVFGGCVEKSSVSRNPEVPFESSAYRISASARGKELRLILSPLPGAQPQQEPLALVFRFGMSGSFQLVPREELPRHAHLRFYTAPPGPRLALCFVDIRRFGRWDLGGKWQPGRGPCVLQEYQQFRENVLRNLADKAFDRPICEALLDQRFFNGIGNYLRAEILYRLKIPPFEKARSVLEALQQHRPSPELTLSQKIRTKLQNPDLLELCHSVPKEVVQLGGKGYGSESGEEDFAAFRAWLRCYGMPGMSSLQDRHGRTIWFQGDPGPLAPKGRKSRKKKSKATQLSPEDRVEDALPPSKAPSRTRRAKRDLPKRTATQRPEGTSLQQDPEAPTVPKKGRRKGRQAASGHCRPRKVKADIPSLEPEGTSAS
# study_conditions: Compound Concentration 10.0 uM, Hit No
# Description: Inhibition of NEIL1 by quantifying inhibition of NEIL1-mediated cleavage and dissociation of quenched duplex DNA oligonucleotides, measured as fluorescence at 594 nm.
value_type: inhibition (%)

molecule=Cc1cc(C)c(N)c(C#Cc2cccc(F)c2)n1 readout_value=0.982
molecule=NCCc1c[nH]c2ccc(O)cc12 readout_value=5.88
molecule=C[C@H](NC(=O)Cc1ccc(-c2ccc3cccnc3n2)cc1)c1ccc(-c2ccc(F)c(C(F)(F)F)c2)cc1 readout_value=7.12
molecule=O=C(NCc1cccnc1OCC(F)(F)F)c1cncc(-c2ccc(Cl)cc2)c1 readout_value=-4.73
molecule=CCCc1c(OCCCOc2ccc(OCC(=O)O)cc2)ccc(C(C)=O)c1O readout_value=-2.56
molecule=CCCCN(CCCC)C(=O)CN1C[C@@H](c2ccc3c(c2)OCO3)[C@H](C(=O)O)[C@H]1c1ccc(OC)cc1 readout_value=-5.1
molecule=FC(F)(F)c1ccc(Nc2ncnc3cc(-c4ncccc4C(F)(F)F)ccc23)cc1 readout_value=11.7
molecule=Cc1csc2c(N[C@@H](C)CN3CCN(S(=O)(=O)c4ccc(Cl)c(Cl)c4)CC3)ncnc12 readout_value=0.834
molecule=CNC[C@H](O)c1cccc(O)c1 readout_value=-4.8
molecule=CO[C@H]1CC[C@H](CNc2ccc(S(=O)(=O)NC(=O)c3ccc(N4CCN(CC5=C(c6ccc(Cl)cc6)CC(C)(C)CC5)CC4)cc3Oc3cnc4[nH]ccc4c3)cc2[N+](=O)[O-])CC1 readout_value=-6.8
molecule=C[C@@H]1CN(Cc2ccc(F)cc2)CCN1C(=O)COc1ccc(Cl)cc1NC(N)=O readout_value=8.25
molecule=COc1cc(OC)c(NC(=O)c2ccc(Cc3cc4c(cc3C)C(C)(C)CCC4(C)C)o2)c(OC)c1 readout_value=7.51
molecule="CC(CNS(=O)(=O)C(C)C)c1ccc(-c2ccc(C#N)cc2)cc1 (stereo not given)" readout_value=12
molecule=CC(C)(O)CNc1ncc(-c2ccnc(Nc3ccnc(Cl)c3)n2)c(CC2CC2)n1 readout_value=-7.52
molecule=Cn1cc(-n2cnc3c(NCc4nc5cc(Cl)c(Cl)cc5[nH]4)nc(N4CCOCC4)nc32)cn1 readout_value=6.21
molecule=CC[C@@H]1C(=O)N(C)c2cnc(Nc3ccc(C(=O)NC4CCN(C)CC4)cc3OC)nc2N1C1CCCC1 readout_value=2.78
molecule=C(#Cc1cccc(CN2CCOCC2)c1)CCN1CCCCC1 readout_value=11.2
molecule=CC[C@@H](C)Nc1nc(C)nc2c(-c3ccc(OC)nc3C)c(C)nn12 readout_value=4.1
molecule=Cn1cc(-c2ccc3occ(-c4cccc(-c5ccncc5)c4)c3n2)cn1 readout_value=-1.18
molecule=O=C(O)c1ccccc1S(=O)(=O)NCCCCN1C(=O)c2cccc3cccc(c23)C1=O readout_value=8.25
